target: human H4 receptor (Homo sapiens (Human)); test: Binding assay on recombinant human histamine H4 receptor ([3H]histamine competition, SK-N-MC cell membranes); conditions: membranes harvested with cell harvester; [3H]histamine 10 nM; average of results; read-out: Cell Harvester Ki
Where a name gives a salt, the structure may show the parent alone.
# key: entry, value: pKi
Please treat pKi as minus the base-10 logarithm of the molar concentration.

CN[C@@H]1CCN(c2cnnc(N[C@H]3C[C@H]4C[C@@H]([C@@H]3C)C4(C)C)c2)C1 :: 8.23
CNC1CN(c2cnnc(NCC(C)(C)C)c2)C1 :: 6.05

Would you kindly share the measured pKi for `CN[C@@H]1CCN(c2cnnc(NC3CCCCC3)c2)C1` ?
8.32

Would you kindly share the measured pKi for `c1cc(N2CCNCC2)nc(NC2CC2)n1` ?
6.63

Would you kindly share the measured pKi for c1ccc(CNc2cc(N3CCNCC3)ccn2)cc1 [Example 18, dihydrochloride] ?
6.28

====

target: UniProt:Q9H3N8; assay: Binding assay on recombinant human histamine H4 receptor ([3H]histamine competition, SK-N-MC cell membranes); details: membranes harvested with cell harvester; [3H]histamine 10 nM; average of results; read-out: Cell Harvester Ki
Label t when Ki < 90 nM; otherwise f.

N[C@@H]1CCN(c2ccnc(NCC3CCCCC3)n2)C1 :: t

Given `CNC1CN(c2ccnc(NC3CCCC3)c2)C1` , is recorded Ki strictly lower than 90 nM?
t

Given `CNC1CN(c2cnnc(NCCCO)c2)C1` , is recorded Ki strictly lower than 90 nM?
f

Given `CN[C@@H]1CCN(c2ccnc(NC3CC3)n2)C1` , is recorded Ki strictly lower than 90 nM?
t

====

target: human H4 receptor (Homo sapiens (Human)); assay: Binding assay on recombinant human histamine H4 receptor ([3H]histamine competition, SK-N-MC cell membranes); settings: membranes harvested with cell harvester; [3H]histamine 10 nM; average of results; read-out: Cell Harvester Ki
Label rule met when Ki < 0.3 µM; otherwise rule not met.

Here are 8 compounds together with their reported answers.
CN[C@@H]1CCN(c2ccnc(NCc3ccc(F)cc3)n2)C1 :: rule met
N[C@@H]1CCN(c2ccnc(NCc3ccccn3)n2)C1 :: rule not met
NC1CCN(c2cnnc(NCC3CC4CCC3C4)c2)C1 (stereo in doubt) :: rule not met
OCCCNc1nccc(N2CC3CCN[C@H]3C2)n1 (stereo in doubt) :: rule met
CNC1CN(c2ccnc(NCc3ccccn3)c2)C1 :: rule not met
CN[C@H]1CCN(c2ccnc(NCC(C)(C)O)c2)C1 :: rule not met
CC(C)(CO)CNc1nccc(N2CC[C@@H](N)C2)n1 :: rule met
N[C@@H]1CCN(c2ccnc(NCCc3ccccc3)n2)C1 :: rule met

Given `CCCCNc1nccc(N2CC(N)C2)n1` , is recorded Ki strictly lower than 0.3 µM?
rule met

Given `Fc1ccc(CNc2nccc(N3C[C@H]4CCN[C@H]4C3)n2)cc1` , is recorded Ki strictly lower than 0.3 µM?
rule not met

====

Target: human H4 receptor (Homo sapiens (Human))
Experiment: Binding assay on recombinant human histamine H4 receptor ([3H]histamine competition, SK-N-MC cell membranes)
Conditions: membranes harvested with cell harvester; [3H]histamine 10 nM; average of results; read-out: Cell Harvester Ki
Method: Binding Assay on Recombinant Human Histamine H4Receptor Cell pellets from SK-N-MC cells stably or transiently transfected with human H4 receptor (NCBI accession No. AF312230) were used for the binding assays. Cell pellets were homogenized in 50 mM Tris/5 mM EDTA buffer and supernatants from an 800 g spin were collected and recentrifuged at 30,000 g for 30 min. […] Filters were then dried, mixed with scintillant and radioactive counts were determined. […]
endpoint: pKi
Please treat pKi as minus the base-10 logarithm of the molar concentration.

// worked examples, pKi included
CNC1CN(c2ccnc(NCc3ccc(F)cc3)n2)C1 :: 6.61
N[C@@H]1CCN(c2ccnc(NC3CC4CCC3C4)n2)C1 (stereo partly shown) :: 8.48
CN[C@@H]1CCN(c2ccnc(NCc3ccccn3)n2)C1 :: 6.71
c1cc(N2CCNCC2)nc(NC2CC3CCC2C3)n1 (stereo not shown) [Example 70] :: 7.14
CN[C@@H]1CCN(c2ccnc(NC3CCCCC3)n2)C1 :: 8.62
CN[C@@H]1CCN(c2ccnc(NCc3ccccc3)n2)C1 :: 7.72
CCCCNc1nccc(N2CC[C@@H](N)C2)n1 :: 8.08

Next, consider the following compound.
Would you kindly share the measured pKi for `CC(C)(C)CNc1cc(N2C[C@H]3CCN[C@H]3C2)ccn1` ?
7.22

====

biological target: human H4 receptor (Homo sapiens (Human), UniProt Q9H3N8); test: Binding assay on recombinant human histamine H4 receptor ([3H]histamine competition, SK-N-MC cell membranes); details: membranes harvested with 96 well Brandel system; [3H]histamine 10 nM; average of results; read-out: Brandel Ki
Sequence (Q9H3N8 whole entry): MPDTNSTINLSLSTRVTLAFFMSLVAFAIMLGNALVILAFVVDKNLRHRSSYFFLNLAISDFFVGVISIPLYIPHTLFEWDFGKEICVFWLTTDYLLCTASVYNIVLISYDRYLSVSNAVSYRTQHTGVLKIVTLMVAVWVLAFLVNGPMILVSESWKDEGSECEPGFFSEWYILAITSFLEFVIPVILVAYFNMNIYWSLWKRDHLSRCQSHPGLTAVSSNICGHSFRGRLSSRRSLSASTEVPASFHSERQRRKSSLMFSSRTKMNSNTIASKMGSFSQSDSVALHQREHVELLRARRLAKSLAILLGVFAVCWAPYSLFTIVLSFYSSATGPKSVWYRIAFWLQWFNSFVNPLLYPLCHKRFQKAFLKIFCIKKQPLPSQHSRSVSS
Counter-ions that a name gives are not always drawn.
# key: entry, value: log10 of Ki
// do not treat as linear: log10 of Ki, unit µM

// worked examples, log10 of Ki included
CCCCNc1cc(N2CC[C@@H](NC)C2)cnn1 [Example 100] :: -1.51
CC(C)Nc1nccc(N2CCN(C)CC2)n1 [Example 53] :: -1.61
c1cc(N2CCNCC2)cc(NCC2CC2)n1 [Example 35] :: -1.59
c1cc(N2CCNCC2)nc(NCC2CC2)n1 [Example 66] :: -1.91
CN[C@@H]1CCN(c2ccnc(NC3CC4CCC3C4)c2)C1 (stereo partly drawn) [Example 1, dihydrochloride] :: -3.00
CN[C@@H]1CCN(c2ccnc(N[C@@H]3C[C@@H]4C[C@H]([C@H]3C)C4(C)C)c2)C1 [Example 10] :: -3.30
N[C@@H]1CCN(c2ccnc(NC3CC3)n2)C1 [Example 55] :: -0.86

Next, consider the following compound.
Would you kindly share the measured log10 of Ki for CN[C@@H]1CCN(c2cnnc(NCC(C)C)c2)C1 [Example 95] ?
-1.82

====

# key: entry, value: pKi
molecular target: human H4 receptor (Homo sapiens (Human)); assay: Binding assay on recombinant human histamine H4 receptor ([3H]histamine competition, SK-N-MC cell membranes); conditions: membranes harvested with cell harvester; [3H]histamine 10 nM; average of results; read-out: Cell Harvester Ki
Please treat pKi as minus the base-10 logarithm of the molar concentration.

Would you kindly share the measured pKi for `CN[C@H]1CCN(c2ccnc(NCC3CCCCC3)c2)C1` ?
7.12

Would you kindly share the measured pKi for `N[C@@H]1CCN(c2ccnc(N[C@@H]3CCOC3)n2)C1` ?
7.23

Would you kindly share the measured pKi for CNC1CN(c2cnnc(NC3C[C@H]4C[C@@H](C3C)C4(C)C)c2)C1 (stereo partly drawn) ?
6.69

Would you kindly share the measured pKi for `Cc1ccc(CNc2nccc(N3CCNCC3)n2)cc1` ?
6.38

Would you kindly share the measured pKi for `C[C@@H](Nc1nccc(N2C[C@H]3CCN[C@H]3C2)n1)c1ccccc1` ?
5.63

====

target: human H4 receptor (Homo sapiens (Human), UniProt Q9H3N8); test: Binding assay on recombinant human histamine H4 receptor ([3H]histamine competition, SK-N-MC cell membranes); conditions: membranes harvested with cell harvester; [3H]histamine 10 nM; average of results; read-out: Cell Harvester Ki
endpoint: Ki (nM)
The reply should contain only the number, in nM.

// worked examples, Ki included
CC1(C)[C@H]2CC[C@H](CNc3nccc(N4C[C@H]5CCN[C@H]5C4)n3)[C@@H]1C2 :: 1050
NC1CN(c2ccnc(NCCCO)n2)C1 :: 745
c1nnc(NC2CCCC2)cc1N1C[C@H]2CCN[C@H]2C1 :: 1320
CN(CCN)c1cnnc(NCC(C)(C)C)c1 :: 1860

Would you kindly share the measured Ki for CN[C@H]1CCN(c2ccnc(NC3CC4CCC3C4)n2)C1 (stereo partly drawn) ?
7.14

====

target: human H4 receptor (Homo sapiens (Human), UniProt Q9H3N8); test: Binding assay on recombinant human histamine H4 receptor ([3H]histamine competition, SK-N-MC cell membranes); settings: membranes harvested with cell harvester; [3H]histamine 10 nM; average of results; read-out: Cell Harvester Ki
endpoint: pKi
Please treat pKi as minus the base-10 logarithm of the molar concentration.

// worked examples, pKi included
CSCCNc1nccc(N2CCNCC2)n1 [Example 124] :: 6.81
N[C@@H]1CCN(c2cnnc(NC3CCCCC3)c2)C1 [Example 365] :: 6.29
CC(C)Nc1nccc(N2CCNCC2)n1 [Example 67] :: 6.56

Can you look up pKi on human H4 receptor (Homo sapiens (Human), UniProt Q9H3N8) for CN[C@@H]1CCN(c2ccnc(NC(C)C)n2)C1 [Example 78] ?
8.22

Can you look up pKi on human H4 receptor (Homo sapiens (Human), UniProt Q9H3N8) for CC(C)CNc1nccc(N2CCNCC2)n1 [Example 65] ?
7.16

Can you look up pKi on human H4 receptor (Homo sapiens (Human), UniProt Q9H3N8) for c1cc(N2C[C@H]3CCN[C@H]3C2)cc(NCC2CCCC2)n1 [Example 261] ?
5.45

Can you look up pKi on human H4 receptor (Homo sapiens (Human), UniProt Q9H3N8) for c1nnc(NC2CCCC2)cc1N1CCNCC1 [Example 354] ?
5.67

Can you look up pKi on human H4 receptor (Homo sapiens (Human), UniProt Q9H3N8) for CN1CCN(c2ccnc(NC3CC3)n2)CC1 [Example 56] ?
6.25

Can you look up pKi on human H4 receptor (Homo sapiens (Human), UniProt Q9H3N8) for CC(C)(C)Nc1cc(N2C[C@H]3CCN[C@H]3C2)ccn1 [Example 288] ?
7.40
